Cited source: PubChem BioAssay (NCI)

We begin with a simple list: items and their reported TGI.
# System: NCI-H460 lung
# assay notes: NCI tumour cell line growth inhibition, 48 h

Query: Param readout= TGI; system= NCI-H460 lung; entry= O=[N+]([O-])c1ccc(C2=NOC(c3ccc(Cl)cc3)N2C23CC4CC(CC(C4)C2)C3)cc1 (configuration not stated) ; returns value.
Result: > 100 µM

Query: And for COC(=O)C1C(=O)O[C@@H](c2ccc(OC)c(OC)c2OC)C1C(=O)OC (mixture of isomers) ?
Result: > 100 µM

###

# System: NCI-H23 lung
# assay notes: NCI tumour cell line growth inhibition, 48 h
Here the recorded TGI is given for each entry.

# annotated cases, reported TGI shown
1. O=CNc1ccc(S(=O)(=O)c2ccc(NC=O)cc2)cc1 = > 100 µM
2. O=C(O)C(O)C(O)C(O)C(O)C(=O)O (configuration not stated) = > 100 µM
3. CCN(CC)CC(=O)NC1c2ccccc2Oc2c(C)cccc21 (configuration not stated) = > 100 µM

Query: Entry COC1OC(CBr)C(OC(=O)c2ccccc2)C(OS(=O)(=O)c2ccc(C)cc2)C1Br (configuration not stated) has what TGI?
Result: > 100 µM

Query: Input COc1cc(C2SCC(=O)N2c2ccc(NC(C)=O)cc2)cc(OC)c1OC (configuration not stated)
Result: > 100 µM

Query: Lookup COC(=O)c1nn2ccc3ccccc3c2c1C(=O)OC
Result: > 100 µM

Query: Now give it for CCCCCCSCC/C(C)=N\OC too.
Result: > 100 µM

Query: Thanks! And CC(=O)Nc1ccc(/C=C2\N=C(c3ccccc3)OC2=O)cc1 ?
Result: > 100 µM

Query: Also check COc1cc(/C=N/c2ccccn2)cc(OC)c1OC
Result: > 100 µM

Query: Please give the result for O=C(Cc1csc2nc(-c3ccc(Cl)cc3)cn12)N/N=C/c1ccccc1O too.
Result: > 100 µM

Query: Please do the same for CCCCN=C(N)c1ccc(N2CCCN(c3ccc(C(N)=NCCCC)cc3)CC2)cc1 as well.
Result: > 100 µM
